B1: 5KPH (parent)
chain: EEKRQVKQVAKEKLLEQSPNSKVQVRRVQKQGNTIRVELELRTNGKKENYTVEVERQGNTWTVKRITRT

Variants of: B1
Assay: folding stability dG (cDNA display proteolysis); higher = more stable
Conditions: PBS, room temperature
Output MET for folding stability dG not less than 4 kcal/mol; output NOT MET otherwise.

variantkey=Q29L qualitativelabel=MET
variantkey=N33Q qualitativelabel="NOT MET"
variantkey=K11E qualitativelabel="NOT MET"
variantkey=S18Y qualitativelabel=MET
variantkey=R56Q qualitativelabel="NOT MET"
variantkey=T69M qualitativelabel=MET
variantkey=T62V qualitativelabel=MET
variantkey=R68T qualitativelabel="NOT MET"
variantkey=P19R qualitativelabel="NOT MET"
variantkey=L14C qualitativelabel="NOT MET"
variantkey=R27P qualitativelabel="NOT MET"
variantkey=I66Y qualitativelabel="NOT MET"
variantkey=E1S qualitativelabel="NOT MET"
variantkey=T62S qualitativelabel="NOT MET"
variantkey=Y50W qualitativelabel=MET
variantkey=T62Y qualitativelabel=MET
variantkey=T43R qualitativelabel="NOT MET"
variantkey=T43P qualitativelabel="NOT MET"
variantkey=Y50K qualitativelabel="NOT MET"
variantkey=R4H qualitativelabel="NOT MET"
variantkey=V6E qualitativelabel="NOT MET"
variantkey=N44L qualitativelabel="NOT MET"
variantkey=K22F qualitativelabel=MET
variantkey=N49E qualitativelabel="NOT MET"
variantkey=Q31I qualitativelabel=MET
variantkey=R56Y qualitativelabel="NOT MET"
variantkey=Q24K qualitativelabel=MET
variantkey=E48L qualitativelabel="NOT MET"
variantkey=T67S qualitativelabel="NOT MET"
variantkey=L41R qualitativelabel="NOT MET"
variantkey=K47N qualitativelabel="NOT MET"
variantkey=V9T qualitativelabel="NOT MET"
variantkey=T34W qualitativelabel="NOT MET"
variantkey=V63E qualitativelabel="NOT MET"
variantkey=V6D qualitativelabel="NOT MET"
variantkey=R36Y qualitativelabel=MET
variantkey=V52S qualitativelabel="NOT MET"
variantkey=K11T qualitativelabel="NOT MET"
variantkey=Q57G qualitativelabel="NOT MET"
variantkey=R42N qualitativelabel=MET
variantkey=L39F qualitativelabel="NOT MET"
variantkey=N49G qualitativelabel="NOT MET"
variantkey=R26V qualitativelabel=MET
variantkey=I66R qualitativelabel="NOT MET"
variantkey=G45E qualitativelabel="NOT MET"
variantkey=Q29N qualitativelabel="NOT MET"
variantkey=V9H qualitativelabel="NOT MET"
variantkey=I66M qualitativelabel="NOT MET"
variantkey=G58V qualitativelabel="NOT MET"
variantkey=V54R qualitativelabel="NOT MET"
variantkey=K7M qualitativelabel=MET
variantkey=V6T qualitativelabel="NOT MET"
variantkey=Q29R qualitativelabel=MET
variantkey=R65A qualitativelabel=MET
variantkey=T51C qualitativelabel="NOT MET"
variantkey=R26S qualitativelabel="NOT MET"
variantkey=I66C qualitativelabel="NOT MET"
variantkey=R26G qualitativelabel="NOT MET"
variantkey=Q29K qualitativelabel="NOT MET"
variantkey=T67A qualitativelabel="NOT MET"
variantkey=R27F qualitativelabel="NOT MET"
variantkey=R4S qualitativelabel="NOT MET"
variantkey=V6L qualitativelabel="NOT MET"
variantkey=K13E qualitativelabel="NOT MET"
variantkey=K22T qualitativelabel=MET
variantkey=R4P qualitativelabel="NOT MET"
variantkey=L41W qualitativelabel="NOT MET"
variantkey=T43M qualitativelabel="NOT MET"
variantkey=E55L qualitativelabel="NOT MET"
variantkey=N20G qualitativelabel=MET
variantkey=Q24S qualitativelabel=MET
variantkey=R4Y qualitativelabel="NOT MET"
variantkey=E48G qualitativelabel="NOT MET"
variantkey=R65D qualitativelabel="NOT MET"
variantkey=K7I qualitativelabel=MET
variantkey=I35H qualitativelabel=MET
variantkey=E16L qualitativelabel="NOT MET"
variantkey=R26W qualitativelabel="NOT MET"
